Would you mind telling me the reported normalized growth of each entry?
# ASSAY COMMENT: chemical genetic growth profiling, strain panel (AID 1159580);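 note: tested at 20 µM; growth read once vehicle control cultures reached saturation at 30 °C; 1 = growth at the plate median or of vehicle wells; lower values mean less growth of the strain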
# CONDITIONS: S. cerevisiae deletion strains, growth OD, locus YKR001C, strain vps1, active compounds read low
Out of some 5,500 compounds screened, about 2,000 (36%) were called active. Roughly 18% stayed inconclusive and do not appear here. Some of the results follow.
Just the number, please, no unit attached.

Any idea what normalized growth was measured for CC(C)CC(NC(=O)C(Cc1ccccc1)NC(=O)CNC(=O)CNC(=O)C(N)Cc1ccc(O)cc1)C(=O)O (stereo not given) ?
1.01

Any idea what normalized growth was measured for `COc1cc2c(cc1OC)[C@@H]1C(=O)c3ccc4c(c3O[C@@H]1CO2)C=CC(C)(C)O4` ?
0.934

Any idea what normalized growth was measured for `COP(=O)(OC)OC=C(Cl)Cl` ?
0.992

Any idea what normalized growth was measured for `COc1cc2c(cc1OC)[C@@H]1C(=O)c3ccc(O)c(CC=C(C)C)c3O[C@@H]1CO2` ?
1.02

Any idea what normalized growth was measured for `COc1cc2c(cc1OC)[C@@H]1C(=O)c3ccc(OC)c(CC=C(C)C)c3O[C@@H]1CO2` ?
0.934

Any idea what normalized growth was measured for COc1cc2c(cc1OC)C1C(=O)c3ccc4c(c3OC1CO2)CCC(C)(C)O4 (stereo not given) ?
0.994

Any idea what normalized growth was measured for `COc1ccc2c(c1)O[C@@H]1COc3cc(OC)c(OC)cc3[C@@H]1C2=O` ?
0.912

Any idea what normalized growth was measured for `CC(C)(OC(=O)c1ccccc1)[C@@H]1Cc2cc3ccc(=O)oc3cc2O1` ?
0.997

Any idea what normalized growth was measured for CO[C@H]1[C@H](O)[C@H](O[C@H]2CC[C@]3(C)C4CC[C@]5(C)C(C6=CC(=O)OC6)CC[C@]5(O)C4CC[C@@H]3C2)O[C@@H](C)[C@@H]1O (stereo not given in full) ?
0.992

Any idea what normalized growth was measured for `CC(=O)OC(C)(C)[C@@H]1Cc2cc3ccc(=O)oc3cc2O1` ?
1

* * *

# ASSAY COMMENT: chemical genetic growth profiling, strain panel (AID 1159580);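 note: tested at 20 µM; growth read once vehicle control cultures reached saturation at 30 °C; 1 = growth at the plate median or of vehicle wells; lower values mean less growth of the strain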
# CONDITIONS: S. cerevisiae deletion strains, growth OD, locus YOR069W, strain VPS5
In all, about 5,500 compounds went through this assay and about 2,000 (36%) were called active. Inconclusive results (about 18%) are left out. No stated cut-off is given here; in the data, active means normalized growth mostly below about 0.91 (no sharp cut-off); inconclusive means no clear call, values can overlap the other calls; inactive means mostly above about 0.92. This is one part of the list.
Reply using exactly one outcome from Y for active, N for inactive

Query: recorded result category for `CC(C)OC(=O)C(C)(C)Oc1ccc(C(=O)c2ccc(Cl)cc2)cc1` in this test
N

Query: recorded result category for CCCCCCCCNC(C)C(O)c1ccc(SC(C)C)cc1 (stereo not given) in this test
Y

Query: recorded result category for C=C1C([C@]2(C)C(CC(=O)OC)[C@@](C)(COC(C)=O)OC(=O)C[C@@H]2OC(C)=O)[C@@H](OC=O)[C@H](OC(=O)C(OC(C)=O)C(C)CC)[C@@]2(C)[C@H](c3ccoc3)CC(=O)C12O (stereo not given in full) in this test
N

Query: recorded result category for CC(Oc1ccccc1)C(=O)N[C@@H]1C(=O)N2[C@@H]1SC(C)(C)[C@@H]2C(=O)O (stereo not given in full) in this test
N

Query: recorded result category for `CCOC(=O)[C@H](CCc1ccccc1)N[C@H]1CCc2ccccc2N(CC(=O)O)C1=O` in this test
N

Query: recorded result category for CC(C)CC(NC(=O)C(Cc1ccccc1)NC(=O)CNC(=O)CNC(=O)C(N)Cc1ccc(O)cc1)C(=O)O (stereo not given) in this test
N

Query: recorded result category for CC(=O)OCC(=O)[C@@]1(O)CCC2C3CCC4=CC(=O)CC[C@]4(C)C3C(=O)C[C@@]21C (stereo not given in full) in this test
N

Query: recorded result category for COc1cc(NC(C)CCCN)c2ncccc2c1 (stereo not given) in this test
N

Query: recorded result category for CC1(C)C(C=C(Cl)Cl)C1C(=O)OC(C#N)c1cccc(Oc2ccccc2)c1 (stereo not given) in this test
N

Query: recorded result category for `COc1cc(NS(=O)(=O)c2ccc(N)cc2)nc(OC)n1` in this test
N

Query: recorded result category for `C[C@@H]1[C@H]2[C@H](O[C@@H]3O[C@H](CO)[C@@H](O)[C@H](O)[C@H]3O)OC=C(C(=O)O)[C@H]2C[C@@H]1O` in this test
N

Query: recorded result category for `O=C(CC[N+](=O)[O-])OC[C@H]1O[C@@H](O)[C@H](OC(=O)CC[N+](=O)[O-])[C@@H](OC(=O)CC[N+](=O)[O-])[C@@H]1OC(=O)CC[N+](=O)[O-]` in this test
N

Query: recorded result category for CCOC(=O)C1(O)Oc2cc(OC)cc(OC)c2C(=O)C1c1ccccc1 (stereo not given) in this test
N

Query: recorded result category for CCS(=O)CCSP(=O)(OC)OC (stereo not given) in this test
N

Query: recorded result category for CNC(C)[C@H](O)c1ccccc1 (stereo not given in full) in this test
N

Query: recorded result category for `COc1ccc2c(c1OC)C(=O)O[C@H]2[C@H]1c2cc3c(cc2CCN1C)OCO3` in this test
N

Query: recorded result category for `O=C(O)c1cc2ccccc2[nH]1` in this test
N

Query: recorded result category for `COC1=CC(=O)C[C@@H](C)[C@]12Oc1c(Cl)c(OC)cc(OC)c1C2=O` in this test
N

Query: recorded result category for `CN1CCC(=C2c3ccccc3CC(=O)c3sccc32)CC1` in this test
N

Query: recorded result category for ClC1=C(Cl)C2(Cl)C3C4C=CC(C4)C3C1(Cl)C2(Cl)Cl (stereo not given) in this test
N

Query: recorded result category for CC(NCCc1ccc(O)cc1)C(O)c1ccc(O)cc1 (stereo not given) in this test
N

Query: recorded result category for CCOC(=O)C(=O)C1(C(=O)OCC)Oc2cc(OC)cc(OC)c2C(=O)C1c1ccccc1 (stereo not given) in this test
N

Query: recorded result category for `CCOC(=O)CCC(=O)O[C@H]1[C@H](O[C@@H]2[C@@H](C)[C@H](O[C@H]3C[C@@](C)(OC)[C@@H](O)[C@H](C)O3)[C@@H](C)C(=O)O[C@H](CC)[C@@](C)(O)[C@H](O)[C@@H](C)C(=O)[C@H](C)C[C@@]2(C)O)O[C@H](C)C[C@@H]1N(C)C` in this test
N

Query: recorded result category for `COc1ccc2cc([C@H](C)C(=O)O)ccc2c1` in this test
N

Query: recorded result category for `CS(=O)(=O)c1ccc(C2=C(c3ccccc3)C(=O)OC2)cc1` in this test
N

Query: recorded result category for CC(N)CCCC(C)(C)O (stereo not given) in this test
N

Query: recorded result category for OCC(O)C(O)C(O)CO (stereo not given) in this test
N

Query: recorded result category for `CC[C@H]1OC(=O)[C@H](C)[C@@H](O[C@H]2C[C@@](C)(OC)[C@@H](O)[C@H](C)O2)[C@H](C)[C@@H](O[C@@H]2O[C@H](C)C[C@H](N(C)C)[C@H]2O)[C@](C)(O)C[C@@H](C)CN(C)[C@H](C)[C@@H](O)[C@]1(C)O` in this test
N

Query: recorded result category for COc1ccc(OC)c(C(O)C(C)N)c1 (stereo not given) in this test
N

Query: recorded result category for `CN1CCC(=C2c3ccccc3Sc3ccccc32)CC1` in this test
N

Query: recorded result category for CC(C(=O)O)c1cccc(Oc2ccccc2)c1 (stereo not given) in this test
N

Query: recorded result category for `CCC(=O)O[C@H]1[C@H](O[C@@H]2[C@@H](C)[C@H](O[C@H]3C[C@@](C)(OC)[C@@H](O)[C@H](C)O3)[C@@H](C)C(=O)O[C@H](CC)[C@@](C)(O)[C@H](O)[C@@H](C)C(=O)[C@H](C)C[C@@]2(C)O)O[C@H](C)C[C@@H]1N(C)C` in this test
N

Query: recorded result category for CCC(C)C(=O)O[C@H]1[C@H](O)C2C(CN3CC(C)CCC3[C@@]2(C)O)C2C[C@]34O[C@]5(O)C(OC(=O)C(C)(O)C(C)O)CC[C@@]3(C)C5C(OC(C)=O)[C@@H](OC(C)=O)C4[C@@]21O (stereo not given in full) in this test
N

Query: recorded result category for CC(C(=O)O)c1cccc(C(=O)c2ccccc2)c1 (stereo not given) in this test
N

Query: recorded result category for `CC(C)(O)[C@@H]1[C@H]2OC(=O)[C@@H]1[C@]1(O)C[C@H]3O[C@]34C(=O)O[C@H]2[C@]14C` in this test
N

* * *

Would you mind telling me the reported normalized growth of each entry?
# ASSAY COMMENT: chemical genetic growth profiling, strain panel (AID 1159580);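 note: tested at 20 µM; growth read once vehicle control cultures reached saturation at 30 °C; 1 = growth at the plate median or of vehicle wells; lower values mean less growth of the strain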
# CONDITIONS: S. cerevisiae deletion strains, growth OD, locus YJL154C, strain vps35, active compounds read low
The whole screen tested about 5,500 compounds, of which about 2,000 (36%) were called active. Not shown: some 18% with an inconclusive outcome. The list shows a part of the results.
Just the number, please, no unit attached.

Any idea what normalized growth was measured for CC(=O)OCC(=O)[C@@]1(O)CCC2C3CCC4=CC(=O)CC[C@]4(C)C3C(=O)C[C@@]21C (stereo not given in full) ?
0.963

Any idea what normalized growth was measured for `CS(=O)(=O)c1ccc(C2=C(c3ccccc3)C(=O)OC2)cc1` ?
0.991

Any idea what normalized growth was measured for CC1CC2C3CCC4=CC(=O)C=C[C@]4(C)[C@@]3(F)[C@@H](O)C[C@]2(C)[C@@]1(O)C(=O)CO (stereo not given in full) ?
0.966

Any idea what normalized growth was measured for CC(=O)OCC(=O)[C@H]1CCC2C3CCC4=CC(=O)CC[C@]4(C)C3CC[C@@]21C (stereo not given in full) ?
0.98

Any idea what normalized growth was measured for O=C(O)C1(O)C[C@@H](O)C(O)[C@H](O)C1 (stereo not given in full) ?
0.971
